Catalogue of OD at dilution 3000 values
Biological target: T1, recombinant protein consisting of the extracellular domain of human TREM2 fused to the His tag (human, UniProt Q9NZC2 19-174)
T1 construct: also called His tagged hTREM2; His-TREM2
T1 sequence: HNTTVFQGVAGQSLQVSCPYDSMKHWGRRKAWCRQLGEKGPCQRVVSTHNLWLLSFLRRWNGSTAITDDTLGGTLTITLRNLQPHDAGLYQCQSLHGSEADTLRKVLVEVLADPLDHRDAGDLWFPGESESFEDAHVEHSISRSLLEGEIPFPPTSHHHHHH
Experiment: direct ELISA, coated His-TREM2 0.5 ug/mL, Ab stock 1 mg/mL
PROPERTY MEASURED: OD at dilution 3000 (OD)

80E3C7 (antibody, V domains shown, Biotin conjugated in sup ELISA, cell-based ELISA and flow cytometry; also called anti-TREM2 antibody (E3C7); TREM2 Ab E3C7) VH: QVQLQQPGAEPLKPGASVKMSCEASGYTFTNFWITWMKLRPGQGLEWIGDIYPGTGNTNYNEKFKSRATLTVDTSSTTAYMQLSSLTSEDSAVYYCAREAYYTNPGFAYWGHGTLVTVSA VL: DVLMTQSPLSLPVNLGDQASISCKSSQNIVHSNGNTYLEWYLQRPGQSPKLLIYKVSNRFSGVPDRFSGSGSGTDFTLKISRVEAEDLGVYYCFQGSHVPYTFGGGTKLEIK    2.12
83E10B12 (antibody, V domains shown, Biotin conjugated in sup ELISA, cell-based ELISA and flow cytometry) VH: QVQLQESGPELVKPGASVKISCKASGYIFSYSWMNWVKQRPGKGLEWIGRIYPGDGDADYNGKFKGKATLTADKSSNTAYMQLTSLTSEDSAVYFCARLHIYDGYYVSVYWGQGTLVTVSA VL: DIQMTQTTSCLSASLGDRVTISCRASQDINNYLSWYQQKPDGTVKLLIYYTSKLHSGVPSRFSGSGSGTDYSLTIGNLEQEDVATYFCQQGDTLPWTFGGGTRLEIK    2.49
60H4G2 (antibody, V domains shown, Biotin conjugated in sup ELISA, cell-based ELISA and flow cytometry) VH: EVQLQESGPELVKPGASVKMSCKASGYTFTDYNMHWVKQSHGKSLEWIGYIYPNNGGTGYNQKFKGKATLTVNKSSSTAYMELRSLTSEDSAVYYCARSGRGFAYWGQGTLVTVSA VL: DIVMTQSTSSLTVTAGEKVTMSCKSSQSLLNSGNQKNYLTWYQQKPGQPPKLLIYWASSRESGVPDRFTGRGSGTDFTLTISSVQAEDLAVYYCQNDYSYPFTFGSGTKLEIK    1.89
61B11C9 (antibody, V domains shown, Biotin conjugated in sup ELISA, cell-based ELISA and flow cytometry) VH: QLQESGPEQVKPGASVKMSCRTSGYTFTAYNMHWVKQRLGKSLEWIGYIRPTNGDTRYNRRFRDKATLTVDKSSSTTYMELRSLTSEDSAVYYCTRSTTVASFDYWGQGTTLTVSS VL: DIVMTQTTSSLTVSVGQKITLNCKSSQSLLYTNNQKNFLAWYQQKPGQSPKLLIYWASTRDSGVPDRFTGSGSGTDFTLTITSVMAEDLAVYFCQQYYDFPPTFGGGTKLEIK    2.76
60H4A3 (antibody, V domains shown, Biotin conjugated in sup ELISA, cell-based ELISA and flow cytometry) VH: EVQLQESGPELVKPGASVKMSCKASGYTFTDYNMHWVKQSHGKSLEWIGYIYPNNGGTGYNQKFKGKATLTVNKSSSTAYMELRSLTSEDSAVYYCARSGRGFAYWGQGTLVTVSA VL: DIVMTQSPASLSVTPGDRVSLSCRASQSISDYLHWYQQKSHESPRLLIKYASQSISGIPSRFSGSGSGSDFTLSINSVEPEDVGVYYCQNGHSFPYTFGGGTKLEIK    1.8
54H2C1 (antibody, V domains shown, Biotin conjugated in sup ELISA, cell-based ELISA and flow cytometry) VH: QVQLQQPGAEPLTPGASVKMSCEASGYTFTNFWITWVKLRPGQGLEWIGDIYPGSGNTNYNEKFKSRATLTVDTSSTTAYMQLSSLTSEDSAVYYCAREAYYTNPGFAYWGHGTLVTVSA VL: DVLMTQSPLSLPVNLGDQASISCKSSQNIVHSNGNTYLEWYLQRPGQSPKLLIYKVSNRFSGVPDRFSGSGSGTDFTLKISRVEAEDLGLYYCFQGSHVPYTFGGGTKLEIK    1.35

These measurements were taken from patent US20240239886A1.
